tgt: CDK9 (Homo sapiens, UniProt P50750)
Construct: host or cells: HEK293
Sequence (P50750 whole entry): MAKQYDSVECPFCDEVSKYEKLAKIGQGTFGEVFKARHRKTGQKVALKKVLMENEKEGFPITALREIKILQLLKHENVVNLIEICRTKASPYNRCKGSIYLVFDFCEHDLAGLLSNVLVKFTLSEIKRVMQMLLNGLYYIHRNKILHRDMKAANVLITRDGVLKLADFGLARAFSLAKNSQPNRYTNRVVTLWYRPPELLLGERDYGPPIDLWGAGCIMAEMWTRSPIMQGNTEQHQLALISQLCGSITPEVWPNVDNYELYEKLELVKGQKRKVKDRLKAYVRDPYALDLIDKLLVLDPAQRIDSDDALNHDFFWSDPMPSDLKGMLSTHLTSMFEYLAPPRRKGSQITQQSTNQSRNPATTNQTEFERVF
test_summary: CDK9 HIBIT PQ (protein quantification), degradation
Assay type: cell-based
condition_notes: Max = Maximum
endpoint: Dmax (%)
A number alone suffices; assume %.

*Q* Recorded Dmax for CC(C)Oc1c(-c2cn[nH]c2)ncn2nc(NC3CCN(S(=O)(=O)c4cccc(CN5CC(c6ccc7c(c6)CN(C6CCC(=O)NC6=O)C7=O)C5)c4)CC3)nc12 (racemic) [Compound 4] with CDK9 (Homo sapiens, UniProt P50750), please?
*A* 4

*Q* # iterate: CC(C)Oc1c(-c2cn[nH]c2)ncn2nc(N[C@H]3CCN(S(=O)(=O)c4cccc(CN5CCN(c6ccc7c(N8CCC(=O)NC8=O)nn(C)c7c6)CC5(C)C)c4)C[C@H]3C)nc12 [Compound 52]
*A* 93

*Q* # iterate: CC(C)Oc1c(-c2cn[nH]c2)ncn2nc(Nc3ccc(S(=O)(=O)c4cccc(C[C@H]5C[C@H](c6ccc7c(c6)CN(C6CCC(=O)NC6=O)C7=O)C5)c4)cc3F)nc12 (some centres unmarked) [Compound 30]
*A* 54

*Q* # iterate: CC(C)Oc1c(-c2cn[nH]c2)ncn2nc(Nc3ccc(S(=O)(=O)c4cccc(CN5C6CC5CN(c5ccc7c(N8CCC(=O)NC8=O)nn(C)c7c5)C6)c4)cc3F)nc12 [Compound 45]
*A* -10

*Q* # iterate: CC(C)Oc1c(-c2cn[nH]c2)ncn2nc(Nc3ccc(S(=O)(=O)N(C)CCCN4CCC(c5ccc6c(N7CCC(=O)NC7=O)nn(C)c6c5)CC4)cc3F)nc12 [Compound 15]
*A* 99

*Q* # iterate: CC(C)Oc1c(-c2cn[nH]c2)ncn2nc(Nc3ccc(S(=O)(=O)c4cccc(CN5CCC(c6ccc7c(N8CCC(=O)NC8=O)nn(C)c7c6)CC5)c4)cc3F)nc12 [Compound 8]
*A* 91

*Q* # iterate: CC(C)Oc1c(-c2cn[nH]c2)ncn2nc(Nc3ccc(S(=O)(=O)N(C)CCCN4CC5CC4CN5c4ccc5c(c4)n(C)c(=O)n5C4CCC(=O)NC4=O)cc3F)nc12 (centres unmarked) [Compound 69]
*A* 6

*Q* # iterate: CC(C)Oc1c(-c2cn[nH]c2)ncn2nc(Nc3ccc(S(=O)(=O)N4CCC[C@H](CN5CC[C@H](c6ccc7c(N8CCC(=O)NC8=O)nn(C)c7c6)CC5(C)C)C4)cc3F)nc12 (single isomer, unassigned) [Compound 104]
*A* 13

*Q* # iterate: CC(C)Oc1c(-c2cn[nH]c2)ncn2nc(Nc3ccc(S(=O)(=O)N4CCCC(CN5CCC(c6ccc7c(c6)n(C)c(=O)n7C6CCC(=O)NC6=O)CC5)C4)cc3F)nc12 (centres unmarked) [Compound 72]
*A* 71

*Q* # iterate: CC(C)Oc1c(-c2cn[nH]c2)ncn2nc(Nc3ccc(S(=O)(=O)c4cccc(CN5CC6(C5)CN(c5ccc7c(c5)CN(C5CCC(=O)NC5=O)C7=O)C6)c4)cc3F)nc12 (racemic) [Compound 10]
*A* 54

*Q* # iterate: CC(C)Oc1c(-c2cn[nH]c2)ncn2nc(NC3CCN(S(=O)(=O)c4cccc(CN5CCC(c6ccc7c(N8CCC(=O)NC8=O)nn(C)c7c6)CC5)c4)CC3)nc12 [Compound 1]
*A* 104

*Q* # iterate: Cc1cc(Nc2nc3c(OC(C)C)c(-c4cn[nH]c4)ncn3n2)c(F)cc1S(=O)(=O)N(C)CCCN1CCC(c2ccc3c(c2)n(C)c(=O)n3C2CCC(=O)NC2=O)CC1 (racemic) [Compound 59]
*A* 68

*Q* # iterate: CC(C)Oc1c(-c2cn[nH]c2)ncn2nc(Nc3ccc(S(=O)(=O)c4cccc(CN5CC6CC5CN6c5ccc6c(N7CCC(=O)NC7=O)nn(C)c6c5)c4)cc3F)nc12 (centres unmarked) [Compound 48]
*A* 2

*Q* # iterate: CC(C)Oc1c(-c2cn[nH]c2)ncn2nc(N[C@H]3CCN(S(=O)(=O)c4cccc(CN5CCN(c6ccc7c(N8CCC(=O)NC8=O)nn(C)c7c6)CC5)c4)C[C@H]3C)nc12 [Compound 40]
*A* 103

*Q* # iterate: CC(C)Oc1c(-c2cn[nH]c2)ncn2nc(Nc3ccc(S(=O)(=O)c4cccc(N5CCCC6C5CN6c5ccc6c(c5)CN(C5CCC(=O)NC5=O)C6=O)c4)cc3F)nc12 (centres unmarked) [Compound 35]
*A* 17

*Q* # iterate: CC(C)Oc1c(-c2cn[nH]c2)ncn2nc(Nc3ccc(S(=O)(=O)N4CC5(CCCN(CC6CCN(c7cccc8c7n(C)c(=O)n8C7CCC(=O)NC7=O)CC6)C5)C4)cc3F)nc12 (racemic) [Compound 76]
*A* 46

*Q* # iterate: CC(C)Oc1c(-c2cn[nH]c2)ncn2nc(Nc3ccc(S(=O)(=O)c4cccc(CN5CCN(c6ccc7c(N8CCC(=O)NC8=O)nn(C)c7c6)CC5)c4)cc3F)nc12 [Compound 38]
*A* 63

*Q* # iterate: CC(C)Oc1c(-c2cn[nH]c2)ncn2nc(Nc3ccc(S(=O)(=O)c4cccc(CC5CC(c6ccc(C(=O)NC7CCC(=O)NC7=O)cc6)C5)c4)cc3F)nc12 (racemic) [Compound 32]
*A* 62

*Q* # iterate: CC(C)Oc1c(-c2cn[nH]c2)ncn2nc(Nc3ccc(S(=O)(=O)N4CCC[C@@H](CN5CC[C@@H](c6ccc7c(N8CCC(=O)NC8=O)nn(C)c7c6)CC5(C)C)C4)cc3F)nc12 (single isomer, unassigned) [Compound 105]
*A* 25

*Q* # iterate: CC(C)Oc1c(-c2cn[nH]c2)ncn2nc(N[C@H]3CCN(S(=O)(=O)c4cccc(CN5CCN(c6ccc7c(N8CCC(=O)NC8=O)nn(C)c7c6)C(C)C5)c4)C[C@H]3C)nc12 (some centres unmarked) [Compound 49]
*A* 104
